assay-readout: melting point

compound	assay-value
O=C(O)c1cncc(-c2ccc3c(C(=O)NCC45CC6CC(CC(C6)C4)C5)c(Cl)ccc3n2)c1	247 °C
COc1ccnc(CCc2nc3cc(-c4ccc(S(=O)(=O)N5CCN(C(C)=O)CC5)cc4)cnc3[nH]2)c1	138 to 140 °C
COc1ccc(S(=O)(=O)N2CSC(C)(C)[C@@H]2C(=O)NO)cc1	68 to 71 °C
Fc1ccc(NC(=S)c2ccccn2)c(F)c1	124 to 129 °C
CCN(CC)CCNC(=O)c1cc(Cl)c(N)cc1OCC(=O)OC	92 to 94 °C
CC(C)(C)C(=O)Oc1ccc(C(=O)c2ccc(OC(=O)C(C)(C)C)cc2OC(=O)C(C)(C)C)cc1	94 to 96 °C
COC(=O)c1ccccc1S(=O)(=O)NC(=O)Nc1nc(C)c(C)c(C)n1	152 to 161 °C
CCOC(=O)CC(C)(O)c1ccc(-c2ccccc2)cc1 (stereo not drawn)	58 to 60 °C
COc1ccc(-c2cc(C=O)c3occc3c2)cc1	94 to 95 °C
COC1(c2cc(F)cc(OCc3ccc(C(=O)O)cc3)c2)CCOCC1	184 to 186 °C
O=C1C(Cc2ccccc2)C(c2ccccc2)Nc2ccccc2N1Cc1ccccc1 (stereo not drawn)	149 to 150 °C
O=Cc1cccc(Oc2cccc(F)c2)n1	42 to 43 °C
CC1(C)Cc2cc(S(N)(=O)=O)ccc2O1	157 to 160 °C
O=C1NCN(c2ccccc2)C12CCN(CCCn1c(=O)[nH]c3ccccc31)CC2	228 °C
CCCCOc1ccc([N+](=O)[O-])c(C(=O)O)c1	82 to 84 °C
CCCn1c(=O)n(C)c(=O)c2nc(-c3ccc(/C=C/C(=O)O)cc3)[nH]c21	> 300 °C
CCOC(=O)C1(Br)Oc2ccc(OC(C)=O)cc2OC1Br (stereo not drawn)	58 °C
O=C(NCCc1ccccn1)c1ccccc1-c1ccccc1CN1C(=O)c2ccccc2C1=O	155 °C
CC(C)Cn1cccc1C(N)=S	126 to 128 °C
COc1cccc(C2(N(C)C)CCC(C(O)Cc3ccccc3)CC2)c1 (stereo not drawn)	72 °C
O=C(Oc1ccc(Oc2ccccc2)cc1)c1ccc(C(=O)Oc2ccc(Oc3ccccc3)cc2)cc1	193 to 194 °C
COc1ccc(C2(c3ccc(N(C)C)cc3N(C)C)OC(=O)c3cc(N(C)C)ccc32)cc1 (stereo not drawn)	90 to 94 °C
C[C@@H]1N(C)C(C)(C)CO[C@@]1(O)c1cccc(Cl)c1	128 to 129 °C
COc1ccccc1C1CCC(=O)C=C1C(=O)O (racemic)	177 °C
O=C(O)CN(C(=O)CCCCl)c1csc2ccccc12	167 to 168 °C
COc1ccccc1C=C1NC(=S)NC1=O	234 to 235 °C
CCc1c(C(=O)c2cc(C)cc(C)c2)n(COCc2ccccc2)c(=O)[nH]c1=O	115 to 116 °C
Cc1noc(C)c1C(=O)Nc1ccc(-n2nc(C3CC3)cc2C2CC2)c(F)c1	166 to 168 °C

---

Each item that follows carries a reported melting point.

molecule	melting point
COc1cccc(C=CCN2CCc3nc(N)sc3CC2)c1	120 to 124 °C
CC(C)CCCC(C)C1CCC2C3CC=C4CC(OCCCCCCI)CCC4(C)C3CCC12C (stereo not given)	104 °C
COc1ccc(-c2nsc3ccc([N+](=O)[O-])cc23)cc1	207 °C
CCCCc1nc2ccccn2c(=O)c1-c1ccc(Cl)c(C)c1	122 to 124 °C
CCOc1ccc(C(C)=O)cc1S(=O)(=O)NC(=O)Nc1nc(OC)cc(OC)n1	192 to 193 °C
CCCc1nn(C)c2c(=O)[nH]c(Cc3ccc(S(=O)(=O)N[C@@H](CO)C(N)=O)cc3)nc12	226 to 229 °C
C=CC[C@H]1CC(C(=O)O)=C[C@@H](OC(CC)CC)[C@@H]1NC(C)=O	229 to 230 °C
O=[N+]([O-])c1cnc(-c2nc3ccccc3[nH]2)n1CCO	217 to 219 °C
CCOc1nn(C(=O)NS(=O)(=O)c2c(C)cccc2OC(C)C)c(=O)n1C	155 °C
O=C(OC1CCN(Cc2ccccc2)CC1)c1ccc([N+](=O)[O-])cc1	87 to 89 °C
COc1cc(COc2nn(-c3ccccc3)cc2C=O)ccc1OCc1coc(-c2ccco2)n1	162 to 163 °C
COc1ccc(S(=O)(=O)CC(O)(CS(=O)(=O)c2ccc(F)cc2)C(=O)NO)cc1 (stereo not given)	85 to 90 °C
O=C1NCc2cnc(Nc3ccc(N4CCCCC4CO)cc3)nc2N1C1CCCC1 (stereo not given)	220 to 221 °C
COc1ccc(C(=O)Nc2ccccc2)cc1NC(=S)Nc1cccc(Cl)c1	165 to 168 °C
N#Cc1c(N2CCN(C(=O)c3cccs3)CC2)c2sccc2n(Cc2cccc(F)c2)c1=O	271 °C
Cc1cc(-c2nc3cccnn3c2-c2ccnc(NC(=O)NC3CCC(O)CC3)c2)ccc1F (stereo not given)	218 to 220 °C
CCC(CC)Nc1cc(C(=O)O)ccc1N1CCCC1=O	178 to 180 °C
Cc1ccc(S(=O)(=O)OC2=C(Br)C(=O)c3ccc4c(c3C2=O)C=CC(C)(C)O4)cc1	182 to 184 °C
N#Cc1c(Cl)[nH]c2ccccc12	177 to 180 °C
COC(=O)c1cnn(C)c1C(=O)Nc1ccn2nc(-c3cccnc3)nc2c1	228 to 231 °C
Cc1c(C(=O)Nc2ccc(N3CCN(C4CCOCC4)CC3)c(C#N)c2)cnn1-c1ccc(Cl)c(Cl)c1	242 °C
O=C[C@H](Cc1c[nH]c2ccccc12)NC(=O)[C@H](Cc1ccccc1)NC(=O)OCc1ccccc1	74 to 77 °C
Cn1cc(C(=O)NCc2ccc(Cl)cc2)c(=O)c2cc(CN3CCC(F)(F)CC3)ccc21	214 to 215 °C
CCOc1cc(CCC(=O)O)ccc1OCCCc1cn(-c2ccc(C(F)(F)F)cn2)nc1OCC	114 to 115 °C
C[C@@H](Oc1cc(-c2ncc(C(F)(F)F)cc2F)c(F)cc1Cl)C(=O)O	48 to 50 °C

---

Each item that follows carries a reported melting point.
assay-readout: melting point

compound	assay-value
COc1ccc(C(=O)Nc2ccc(C(C)(C)C#N)cc2)cc1	169 to 171 °C
COC(=O)C(=CNc1sccc1C(=O)O)SC	192 to 194 °C
CCC1(CC)C=C(N2CCSC2=NC#N)c2cc(C#N)ccc2O1	251 to 252 °C
O=C1CC(OC(CBr)CBr)N1 (centres undefined)	80 to 80.5 °C
O=C1c2ccccc2C(=O)N1CCCn1c2ccccc2c2nc3ccccc3nc21	212 to 214 °C
O=C(C1=C(c2ccccc2)c2ccc(O)cc2CC1)c1ccc(O)cc1	205 to 207 °C
O=Cc1ccc(CO)cn1	75 °C
C=CCCn1cc(Br)cnc1=O	127 to 128 °C
CCOC(=O)C1=C(C)NC2=C(C(=O)N(CCO)C2)C1c1ccccc1[N+](=O)[O-] (centres undefined)	210 to 211 °C
O=C(OCn1cc(F)c(=O)n(COC(=O)c2ccccc2)c1=O)c1ccccc1	178 to 180 °C
CCOCC(=O)Nc1ccc(OC(=O)NC)cc1C	118 to 121 °C
COc1cc2c(Nc3ccc4cn[nH]c4c3)c(C#N)cnc2c(OC)c1OC	243 to 245 °C
CNC(=NCCSCc1cc(CN(C)C)ccn1)NC#N	114 to 116 °C
c1ccc(C2=Nc3ccccc3N3CCc4cccc2c43)cc1	141 to 143 °C
CCCCc1nc2c(c(C)c(C)n3nnnc23)n1CC(C)(C)NC(=O)OC(C)(C)C	179 to 181 °C
CC(C)(O)c1ccc(CNC(=O)c2cccnc2Oc2cc(F)cc(F)c2)cc1	68 to 70 °C
Clc1ccc(OC2CN(C(c3ccccc3)c3ccccc3)C2)cc1	113 to 114 °C
CC(=O)c1c(C(C)C)nn2c(C)cccc12	67.5 to 68 °C
CCOC(=NC(=O)Nc1ccc(OC(F)(F)F)cc1)N1Cc2ccccc2-c2ccccc2C1	129 to 130 °C
COc1ccc(Nc2cc(NCCCO)ncn2)cc1	151 to 152 °C
CC1Cc2cccc3c4oc(=O)c(Sc5cccc(F)c5)c(O)c4c(=O)n1c23 (centres undefined)	199 to 200 °C
COc1c2c(c(OC)c(OC)c1OC)CCC(CCOc1cccnc1)CC2	111 to 113 °C
CC(=O)c1cc(Br)c(OCCCN2CCC(c3noc4cc(F)ccc34)CC2)c(Br)c1	102 to 103 °C
CN(C)c1ccc(O)c2c1CC1CC3C(N(C)C)C(O)=C(C(N)=O)C(=O)C3(O)C(O)=C1C2=O (centres undefined)	113 °C
O=C(O)C1Oc2ccc(Cl)cc2C(C2CCCCC2)(C2CCCCC2)O1 (centres undefined)	208 °C
Cc1cc(C#N)cc(CNc2c(NC(C)(C)C)c(=O)c2=O)c1	253 to 255 °C
C=CCOC(=O)c1cccc(NC(=O)NCC(=O)Nc2ccccc2C(=O)c2cccs2)c1	140 to 141 °C
CCOC(=O)COc1ccc([N+](=O)[O-])cc1C(F)(F)F	45 to 46 °C
COc1cc2c(s1)c(=O)c(SC)cn2C	185 to 187 °C

Reference source: a melting point compilation (Tetko et al.; mined from patent text by program, amines drawn as free bases though some values may be those of a salt)
